PBM binding z-score overview
test system: LXRb homodimer (NR concentration 270 nM); assay: PBM binding z-score (relative to random genomic background probes); higher = stronger binding; sequences stand for … in GC…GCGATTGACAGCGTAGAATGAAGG

>  <Record Sequence>
CGTCCAAGGTCAATGCTAGGTCAGTGGAAGCATT

>  <PBM binding z-score>
0.891

$$$$
>  <Record Sequence>
ACTATTAGTTGAATTAGGGCAACCGATACGACGC

>  <PBM binding z-score>
0.376

$$$$
>  <Record Sequence>
ACAGACAGGTGAGTGAAGGTAACTGAGCTGGACG

>  <PBM binding z-score>
-0.405

$$$$
>  <Record Sequence>
ATATGTAGGTTACATCCGGGTCATTCACGCTATG

>  <PBM binding z-score>
1.26

$$$$
>  <Record Sequence>
TCTTGGAGGACACGAAAGGTCAGAGCTCGACATC

>  <PBM binding z-score>
0.286

$$$$
>  <Record Sequence>
TCGAGTAGGTTAGGGGCACTCAGAATGGCGTCGA

>  <PBM binding z-score>
-0.72

$$$$
>  <Record Sequence>
TAGCCTAGGTAATGGGCCAGTATACCACGCGAAC

>  <PBM binding z-score>
-0.976

$$$$
>  <Record Sequence>
TAGCCCAGGTCATTGGGCCAGTATAGTACGCATC

>  <PBM binding z-score>
-0.127

$$$$
>  <Record Sequence>
CCGAGCAGGCCAGGGTCACTCAAGCATTTCGCTT

>  <PBM binding z-score>
-1.08

$$$$
>  <Record Sequence>
CTACCAAGGTGAACAAGGTCGTTGCTTACTATTC

>  <PBM binding z-score>
-0.314

$$$$
>  <Record Sequence>
CTCGAAACGTCGGTTGAGGTGAGTATACGGATAA

>  <PBM binding z-score>
-0.3

$$$$
>  <Record Sequence>
CAGCCTAGGTCAGGGCTAGTATAGGAGGAACGTT

>  <PBM binding z-score>
-1.36

$$$$
>  <Record Sequence>
GTACCAAGGAGAATAGGTCGTTGATGAGTAGGCG

>  <PBM binding z-score>
-0.56

$$$$
>  <Record Sequence>
CAAACTAGGTCACAGAGGTCAAAGGCCGTGCGTA

>  <PBM binding z-score>
1.61

$$$$
>  <Record Sequence>
TCGAGTAGGTGAGGGGCATTCAGAATGGCGTCGA

>  <PBM binding z-score>
0.881

$$$$
>  <Record Sequence>
TCATCTAGGTAAACAGGTGAAAGTCCGTAAGTTA

>  <PBM binding z-score>
0.174

$$$$
>  <Record Sequence>
AGAATGCGGTTATACGTAGATCAGGGAAGAAAGT

>  <PBM binding z-score>
-0.59

$$$$
>  <Record Sequence>
ATCTCTAGGTAATGTTCAGTGAAAGATCGATAGA

>  <PBM binding z-score>
1.09

$$$$
>  <Record Sequence>
TGTGCTAGGTCAGTTGGTCAGCTAACGAGCTGCC

>  <PBM binding z-score>
0.565

$$$$
>  <Record Sequence>
CCTACTGGGCCTAGGTCATTGATCAGTCAAAGCA

>  <PBM binding z-score>
-0.469

$$$$
>  <Record Sequence>
GCTTACGGCTCAAAGGTTATAGCATGAATAGAAT

>  <PBM binding z-score>
-0.639

$$$$
>  <Record Sequence>
TAGCCTAGGTCATTGGGCCAGCATAGTACGCATC

>  <PBM binding z-score>
-0.0227

$$$$
>  <Record Sequence>
CTACCAAGGTGAACACGGTCGTTGATTACTATTC

>  <PBM binding z-score>
-0.319

$$$$
>  <Record Sequence>
CTACCAAGTTGAACAAGGTCGTTGATTACTATTC

>  <PBM binding z-score>
0.134

$$$$
>  <Record Sequence>
TCGAGTAGGTTAGTCGGGGAATTCAGCCAACATA

>  <PBM binding z-score>
-0.946

$$$$
>  <Record Sequence>
ATCGAAAGGTCGACGAGGTGAGTATCCACCGTTT

>  <PBM binding z-score>
0.248

$$$$
>  <Record Sequence>
GATAGAGGGTCAAGGCCAGAGTACGCGTATTGAT

>  <PBM binding z-score>
-0.344

$$$$
>  <Record Sequence>
CGTTCAAGGTCAGCAGGTCAGTGAAAGCGACGTG

>  <PBM binding z-score>
0.134

$$$$
>  <Record Sequence>
ATATGTAGGTTAAGGGTCCTTCAGGTTGGTTCGC

>  <PBM binding z-score>
0.267

$$$$
>  <Record Sequence>
ATCTCTATGTAAAGATAGTTCAGTGAATGCAAAT

>  <PBM binding z-score>
0.232

$$$$
>  <Record Sequence>
AGTCAAAGTTCTCTAGGTAACGTAAGATTCAGCT

>  <PBM binding z-score>
-0.356

$$$$
>  <Record Sequence>
CAGCCTAGGTCAGAGCCAGTATAGGAGGAACGTT

>  <PBM binding z-score>
-0.514

$$$$
>  <Record Sequence>
ACATACAGGTGAGTGAAGGTAACTCAGCTGGACG

>  <PBM binding z-score>
-0.321

$$$$
>  <Record Sequence>
CCTTACGGGTCAATGACAGGTTATAGCATTTGGA

>  <PBM binding z-score>
0.333

$$$$
>  <Record Sequence>
ATCGAAAGGTCGACGTGAGTATAGAGAAAGGGAA

>  <PBM binding z-score>
0.422

$$$$
>  <Record Sequence>
CGAACTAGGTCATCCGGGACAGTGAATACATTGA

>  <PBM binding z-score>
0.166

$$$$
>  <Record Sequence>
AATACAGGGTCATCGTAGGCCAGATTACGCACAG

>  <PBM binding z-score>
1.56

$$$$
>  <Record Sequence>
AGAATGAGGATAAGATCAGGGAAACAGAATACAT

>  <PBM binding z-score>
-0.342

$$$$
>  <Record Sequence>
TAGCCTAGGTCATTCAGGGCCCAGTATAGAAAGC

>  <PBM binding z-score>
0.858

$$$$
>  <Record Sequence>
TATACAGGGTCAGAGGCCAGAGTACGAATGTCGA

>  <PBM binding z-score>
1.8

$$$$
>  <Record Sequence>
TCATATAGGTAATGGTGAAAGTCGAACGATATGA

>  <PBM binding z-score>
-0.188

$$$$
>  <Record Sequence>
CCTCGGAGGATAACAGGAGGTCAGAGCTGCCAGA

>  <PBM binding z-score>
-0.35

$$$$
>  <Record Sequence>
TCTTGTAGATCAATAGAGGTTTAGAAAGTGCGCT

>  <PBM binding z-score>
-0.299

$$$$
>  <Record Sequence>
GCGACTGGGGCAAAGCAGGTTACCAGAAGGTTGG

>  <PBM binding z-score>
-1.38

$$$$
>  <Record Sequence>
ACTAGCAGGCCAACTTTGGGTCACTCAAACAAAG

>  <PBM binding z-score>
-0.445

$$$$
>  <Record Sequence>
ATCTCTAGGTATCCAAGTTCAGTGAATGCCGAAC

>  <PBM binding z-score>
0.976

$$$$
>  <Record Sequence>
GCATATAGGTAATACAAGGTGAAAGTACGATTGT

>  <PBM binding z-score>
-0.16

$$$$
>  <Record Sequence>
TCTTGTAGATCAAGCAAGTTAAGAAAGCCTGAGT

>  <PBM binding z-score>
-0.715

$$$$
>  <Record Sequence>
CCGCGTAGGTTATGGGGCATTCAGGCAACGGTGA

>  <PBM binding z-score>
-0.566

$$$$
>  <Record Sequence>
TTACCAAGGTGAAGGTCGTTCATCCCTCTGTAGA

>  <PBM binding z-score>
-0.519

$$$$
>  <Record Sequence>
ATCTCTAGGTTACCAAGTTCAGTGAATGCCGAAC

>  <PBM binding z-score>
1.16

$$$$
